tgt: human FPR2 receptors (Homo sapiens (Human))
Sequence (P25090 whole entry): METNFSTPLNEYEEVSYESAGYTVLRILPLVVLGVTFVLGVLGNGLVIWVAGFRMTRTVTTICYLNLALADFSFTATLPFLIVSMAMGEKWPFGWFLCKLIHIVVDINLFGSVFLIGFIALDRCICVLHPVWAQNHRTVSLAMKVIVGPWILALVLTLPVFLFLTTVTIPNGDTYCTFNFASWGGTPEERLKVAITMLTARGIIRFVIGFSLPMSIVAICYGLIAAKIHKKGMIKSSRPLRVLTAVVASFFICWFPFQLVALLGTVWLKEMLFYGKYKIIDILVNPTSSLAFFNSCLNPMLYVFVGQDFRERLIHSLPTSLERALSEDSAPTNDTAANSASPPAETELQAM
assay.method.text: FPR2 cyclic adenosine monophosphate (cAMP) assay
Assay type: cell-based
condition.label: hFPR2 Assay, CHO cells overexpressing human FPR2; potency bins; read-out: hFPR2 agonist activity EC50 values
pEC50: −log10 of the molar value.
// pEC50 lookup, one value per entry

Which pEC50 is listed for `CS(=O)(=O)NCC1(c2ccc(N3CCC[C@H](NC(=O)Nc4ccc(C(F)(F)F)cc4)C3=O)cc2)CC1` ?
7.00 to 8.00

More entries:
Which pEC50 is listed for `O=C(Nc1ccc(C(F)(F)F)nc1)N[C@@H]1CCCN(c2ccc(C3(CN4CCCC4)CCC3)cc2)C1=O` ?
5.90 to 7.00

Which pEC50 is listed for `CS(=O)(=O)NCC1(c2ccc(N3CCC[C@@H](NC(=O)Nc4ncc(C(F)(F)F)cn4)C3=O)cc2)CC1` ?
7.00 to 8.00

Which pEC50 is listed for `O=C(Nc1ccc(C(F)(F)F)cn1)N[C@@H]1CCCN(c2ccc(C3(CN4CCCC4)CCCC3)cc2)C1=O` ?
5.90 to 7.00

---

tgt: UniProtKB P25090
assay.method.text: FPR2 cyclic adenosine monophosphate (cAMP) assay
Format: cell-based
condition.label: CHO cells overexpressing human FPR2; forskolin 5 μM, IBMX 200 μM; inhibition of cAMP production; read-out: hFPR2 cAMP2 EC50
// pEC50 lookup, one value per entry
# pEC50 = -log10(concentration in molar units)

Reference set, count: 6
Which pEC50 is listed for `CS(=O)(=O)NCC1(c2ccc(N3CCC[C@@H](NC(=O)Nc4cnc(Cl)cn4)C3=O)cc2)CC1` ?
9.04

Which pEC50 is listed for `O=C(Nc1ccc(C(F)(F)F)nc1)N[C@@H]1CCCN(c2ccc(C3(CN4CCOCC4)CCC3)cc2)C1=O` ?
7.77

Which pEC50 is listed for CC(=O)NC(C)C1(c2ccc(N3CCC[C@@H](NC(=O)Nc4ccc(C(F)(F)F)nc4)C3=O)cc2)CC1 (stereo partly shown) ?
4.08

Which pEC50 is listed for O=C(Nc1ccc(Cl)cc1F)N[C@@H]1CCCN(c2ccc(C3CCC(O)C3)cc2)C1=O (stereo partly shown) ?
5.49

Which pEC50 is listed for `O=C(Nc1ccc(C(F)(F)F)nc1)N[C@H]1CCCN(c2ccc(C3(CN4CCCC4)CCCC3)cc2)C1=O` ?
6.00

Which pEC50 is listed for `CS(=O)(=O)NCC1(c2ccc(N3C[C@@H](O)C[C@H](NC(=O)Nc4ncc(C(F)(F)F)cc4F)C3=O)cc2)CC1` ?
7.72

Kindly review the next compound as well.
Which pEC50 is listed for `CS(=O)(=O)NCC1(c2ccc(N3CCC[C@H](NC(=O)Nc4ncc(Cl)cc4F)C3=O)cc2)CC1` ?
6.01

---

tgt: human FPR1 receptors (Homo sapiens (Human), UniProt P21462)
Sequence (P21462 whole entry): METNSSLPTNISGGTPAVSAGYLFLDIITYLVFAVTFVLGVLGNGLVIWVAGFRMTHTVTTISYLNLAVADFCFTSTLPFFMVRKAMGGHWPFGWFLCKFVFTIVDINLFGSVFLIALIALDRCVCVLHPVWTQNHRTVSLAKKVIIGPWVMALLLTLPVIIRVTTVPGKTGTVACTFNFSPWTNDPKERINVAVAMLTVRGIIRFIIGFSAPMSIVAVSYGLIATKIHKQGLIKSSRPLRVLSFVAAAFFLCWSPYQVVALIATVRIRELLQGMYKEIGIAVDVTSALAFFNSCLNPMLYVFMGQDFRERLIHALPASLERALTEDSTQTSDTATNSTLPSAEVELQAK
assay.method.text: FPR1 cyclic adenosine monophosphate (cAMP) assay
Assay type: cell-based
condition.label: CHO cells overexpressing human FPR1; forskolin 10 μM, IBMX 200 μM; inhibition of cAMP production; read-out: hFPR1 cAMP EC50
endpoint: log10 EC50 (log10 of the value in nM)
Recorded EC50 (log10, nM)

Reference set, count: 3
Which log10 EC50 is listed for O=C(Nc1ccc(Cl)cc1F)N[C@@H]1CCCN(c2ccc(C3CCC(O)C3)cc2)C1=O (stereo partly drawn) ?
3.56

Which log10 EC50 is listed for `CS(=O)(=O)NCC1(c2ccc(N3CCC[C@@H](NC(=O)Nc4ccc(C(F)(F)F)cc4)C3=O)cc2F)CC1` ?
0.30

Which log10 EC50 is listed for `CS(=O)(=O)NCC1(c2ccc(N3CCC[C@H](NC(=O)Nc4ncc(Cl)cc4F)C3=O)cc2)CC1` ?
3.88

More entries:
Which log10 EC50 is listed for CC(=O)NC(C)C1(c2ccc(N3CCC[C@@H](NC(=O)Nc4ccc(C(F)(F)F)nc4)C3=O)cc2)CC1 (stereo partly drawn) ?
5.52

Which log10 EC50 is listed for `O=C(Nc1ccc(Cl)cn1)N[C@@H]1CCCN(c2ccc(C3(CN4CCOCC4)CC3)cc2)C1=O` ?
2.85

Which log10 EC50 is listed for `CS(=O)(=O)NCC1(c2ccc(N3CCC[C@@H](NC(=O)Nc4cnc(Cl)cn4)C3=O)cc2)CC1` ?
2.11

These data points were gathered from patent US11124494B2.
